Origin of the recorded values: PubChem BioAssay AID588382

# Protocol details: qHTS of small molecules that selectively kill Giardia lamblia: Hit Validation in HepG2 cytotox;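 note: compound exposure lasted overnight at 37 deg C; nearly all actives have a fitted effect of over 55% in size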
# Measurement context: cell viability; HepG2 cytotoxicity; series mostly up to 38.3 µM
# Protocol: Giardia lamblia is a human pathogen afflicting impoverished nations, and the most common cause of outbreaks of diarrhea in the United States. Giardia has been classified by the CDC as a category B bioterrorism organism. […] 4 uL of HepG2 cells ae dispensed into white 1536-well plates. […] 2 uL of ATPLite is added and the plates are incubated for 15 min at room temperature before they are read on the ViewLux for luminiescence.
Screen size: about 1,300 compounds; about 150 (12%) were called active. Not shown: some 30% with an inconclusive outcome. Calls come from the whole dose curve; as a rule, active = well fitted cell-killing curve with a large enough effect; inconclusive = small, poorly fitted or top-dose-only effect, or effect the other way; inactive = flat fitted curve, though single readings scatter. Shown is part of a subset that was picked to be rich in actives.
API: response.call in 1.0 for active, 0.0 for inactive

For this molecule, state the assay outcome: `Cc1ncc([N+](=O)[O-])n1CCOC(=O)c1ccccc1` 0.0

Hi, sorry to bother you, what did the test record for `O=[N+]([O-])/C(Cl)=C(/NCCO)C(Cl)=C(Cl)Cl` ? 0.0

Recorded test outcome, item `Cc1ccc(C(=O)c2c3ccc([N+](=O)[O-])cc3[n+]([O-])n2CCC(N)=O)cc1` 0.0

Status in this test for `Cc1ccnc(NC(=O)c2ccc3c(c2)OCO3)c1` ? 1.0

Can you look up the reported call for Cc1ccc2nc(NC(=O)C3CCCN(S(=O)(=O)c4cnc[nH]4)C3)sc2c1 (stereo unspecified) for me? 0.0

Assay outcome for `O=C(O)c1cccc(S(=O)(=O)N(Cc2ccccc2)c2ccccc2Cl)c1` : what was it? 0.0

Which outcome did this test record for the molecule `CCC(=O)Nc1nc(-c2cc([N+](=O)[O-])cs2)cs1` ? 0.0

How was `O=[N+]([O-])c1ccc(/C=N/Nc2nc(-c3ccccc3)c3cc(Br)ccc3n2)o1` classified in this test? 0.0

What did the test return for O=C(NC1CCS(=O)(=O)C1)c1ccc(N2CCCCC2)c([N+](=O)[O-])c1 (stereo unspecified) ? 0.0

What call does the record list for `Cc1cccc(-n2nc([N+](=O)[O-])c(=NCc3cccnc3)n2O)c1` ? 0.0

In this assay, the call recorded for CC1(C)CC2CC(C)(CN2S(=O)(=O)c2cccc(C(=O)O)c2)C1 (stereo unspecified) was what? 0.0

* * *

# Protocol details: qHTS of small molecules that selectively kill Giardia lamblia: Hit Validation in HepG2 cytotox;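 note: compound exposure lasted overnight at 37 deg C; nearly all actives have a fitted effect of over 55% in size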
# Measurement context: cell viability; HepG2 cytotoxicity; series mostly up to 38.3 µM
Hit rate of the full screen: of about 1,300 compounds, about 150 (12%) were called active. About 30% were inconclusive and are not listed. Calls follow the shape of the dose curve; as a rule, active = well fitted cell-killing curve with a large enough effect; inconclusive = small, poorly fitted or top-dose-only effect, or effect the other way; inactive = flat fitted curve, though single readings scatter. This excerpt belongs to a sample that is enriched for actives.
Outcomes you can answer with include only these: 1 (active), 0 (inactive)

Test call for this molecule, please: CCN(CC)CCCC(C)Nc1cc(/C=C/c2ccccc2Cl)nc2cc(Cl)ccc12 (stereo not given) 1

Hey, what did the test say about CCN(CC)CCCC(C)Nc1c2ccc(Cl)cc2nc2ccc(OC)cc12 (stereo not given) ? 1

Record request — test call for `Cc1c(N=Nc2ccc(O)cc2)c(=O)n(-c2ccccc2)n1C` 0

For this molecule, state the assay outcome: `Cc1onc(-c2ccccc2)c1C(=O)N/N=C/c1ccc([N+](=O)[O-])c(O)c1` 0

Please indicate how the test categorized `COc1ccc2c3n([n+]([O-])c2c1)CCN=C3c1ccc(Cl)cc1` . 0
